Each item that follows carries a reported PBM E-score.
# Target of assay: Mot3 (UniProt P54785)
# Sequence: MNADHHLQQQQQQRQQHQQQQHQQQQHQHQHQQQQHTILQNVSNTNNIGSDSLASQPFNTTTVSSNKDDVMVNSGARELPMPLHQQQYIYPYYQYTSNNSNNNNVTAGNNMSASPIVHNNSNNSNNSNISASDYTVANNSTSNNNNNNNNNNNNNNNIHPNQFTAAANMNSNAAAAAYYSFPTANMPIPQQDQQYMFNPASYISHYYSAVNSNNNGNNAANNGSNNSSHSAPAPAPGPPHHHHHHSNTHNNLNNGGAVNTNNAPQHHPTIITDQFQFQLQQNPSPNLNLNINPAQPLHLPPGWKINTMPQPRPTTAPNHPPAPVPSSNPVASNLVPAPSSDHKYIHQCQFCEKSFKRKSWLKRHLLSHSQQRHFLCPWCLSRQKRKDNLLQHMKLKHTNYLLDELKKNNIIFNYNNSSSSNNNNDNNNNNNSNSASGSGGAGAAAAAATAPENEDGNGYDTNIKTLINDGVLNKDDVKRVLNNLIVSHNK
# Experiment: PBM E-score (8-mer binding enrichment) (E-score (-0.5 to 0.5)); higher = stronger / more preferred TF binding
# Settings: protein concentration: 200 nM; construct: GST-full length
In all, about 33,000 sequences were measured (“E-score (-0.5 to 0.5)”: median about -0.035, highest 2% from about 0.34 on). The list comes from a sample in which the highest values are over-represented; it also holds close analogues and randomly drawn sequences.
Give the figure by itself; no unit, no explanation.

Worked examples, 5 sequences total:
So for "GAAGGTAA" , the logged PBM E-score turned out to be 0.397

So for "ACACAGGA" , the logged PBM E-score turned out to be 0.295

So for "CCCATGAG" , the logged PBM E-score turned out to be -0.314

So for "AAGCCCTG" , the logged PBM E-score turned out to be -0.0744

So for "AGGAGGCA" , the logged PBM E-score turned out to be 0.382

New cases:
So for "ACATAGGT" , the logged PBM E-score turned out to be 0.282

So for "CTAAAGGC" , the logged PBM E-score turned out to be 0.35

So for "CAAGGTAA" , the logged PBM E-score turned out to be 0.258

So for "ACATAGGC" , the logged PBM E-score turned out to be 0.373

====

# Target of assay: Mot3 (UniProt P54785)
# Sequence: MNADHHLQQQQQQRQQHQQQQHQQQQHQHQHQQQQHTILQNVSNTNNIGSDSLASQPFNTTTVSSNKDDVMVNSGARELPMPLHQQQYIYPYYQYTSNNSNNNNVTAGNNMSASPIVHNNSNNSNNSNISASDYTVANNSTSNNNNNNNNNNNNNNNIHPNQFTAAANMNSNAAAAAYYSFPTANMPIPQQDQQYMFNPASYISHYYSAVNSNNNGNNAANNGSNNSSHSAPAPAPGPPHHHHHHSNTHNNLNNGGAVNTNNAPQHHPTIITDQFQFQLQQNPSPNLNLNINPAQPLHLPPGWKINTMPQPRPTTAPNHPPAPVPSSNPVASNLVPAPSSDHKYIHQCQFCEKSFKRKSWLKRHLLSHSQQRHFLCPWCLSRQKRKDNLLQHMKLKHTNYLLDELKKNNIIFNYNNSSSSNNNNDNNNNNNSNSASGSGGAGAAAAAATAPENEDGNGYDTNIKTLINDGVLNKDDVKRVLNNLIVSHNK
# Experiment: PBM E-score (8-mer binding enrichment) (E-score (-0.5 to 0.5)); higher = stronger / more preferred TF binding
# Settings: protein concentration: 200 nM; construct: GST-full length
The full ranking holds about 33,000 sequences; the median of “E-score (-0.5 to 0.5)” is about -0.035, and the highest 2% start at about 0.34. Shown is part of a subset that was picked to be rich in the highest values.
// label = 1.0 if PBM E-score is not less than 0.03, otherwise 0.0

Check out these entries, answers already filled in.
Test whether the sequence "AGGAAGCC" records PBM E-score of 0.03 or higher.
0.0

Test whether the sequence "AGTGCCTG" records PBM E-score of 0.03 or higher.
1.0

Please turn your attention to the following entry.
Test whether the sequence "AGAGCCTA" records PBM E-score of 0.03 or higher.
1.0
